Data provenance: patent EP4582418A1

test.summary: Solubility in FaSSIF (pH 6.5) and FeSSIF (pH 5.0) buffer solutions
Assay type: physicochemical
details: test solutions at pH 5.0 and pH 6.5
endpoint: solubility compared with the compound of formula (I)

- COc1cc2nccc(Oc3ccc(NC(=O)c4nn(C(C)C)cc(-c5ccc(F)cc5)c4=O)nc3)c2cc1OC [Crystal form II]: significantly improved
- COc1cc2nccc(Oc3ccc(NC(=O)c4nn(C(C)C)cc(-c5ccc(F)cc5)c4=O)nc3)c2cc1OC [Crystal form IV]: significantly improved
- COc1cc2nccc(Oc3ccc(NC(=O)c4nn(C(C)C)cc(-c5ccc(F)cc5)c4=O)nc3)c2cc1OC [Crystal form III]: significantly improved
- COc1cc2nccc(Oc3ccc(NC(=O)c4nn(C(C)C)cc(-c5ccc(F)cc5)c4=O)nc3)c2cc1OC [Crystal form I]: significantly improved

* * *

test.summary: Stability test under influencing factors (high temperature, high humidity, illumination)
Type: physicochemical
details: Left to stand open at RH 92.5% for 10 days
endpoint: Purity (%)

- COc1cc2nccc(Oc3ccc(NC(=O)c4nn(C(C)C)cc(-c5ccc(F)cc5)c4=O)nc3)c2cc1OC [Crystal form II]: 99.74
- COc1cc2nccc(Oc3ccc(NC(=O)c4nn(C(C)C)cc(-c5ccc(F)cc5)c4=O)nc3)c2cc1OC [Crystal form I]: 99.68
- COc1cc2nccc(Oc3ccc(NC(=O)c4nn(C(C)C)cc(-c5ccc(F)cc5)c4=O)nc3)c2cc1OC [Crystal form IV]: 99.92
- COc1cc2nccc(Oc3ccc(NC(=O)c4nn(C(C)C)cc(-c5ccc(F)cc5)c4=O)nc3)c2cc1OC [Crystal form III]: 99.90

* * *

Measured Purity accompanies every entry in the list below.
test.summary: Stability test under influencing factors (high temperature, high humidity, illumination)
Assay type: physicochemical
details: Left to stand open under illumination (4500±500 Lux) for 30 days
Text: Test substances: the crystal forms I, II, III, and IV of the methanesulfonate of the compound of formula (I) of the present disclosure. […]
endpoint: Purity (%)

• COc1cc2nccc(Oc3ccc(NC(=O)c4nn(C(C)C)cc(-c5ccc(F)cc5)c4=O)nc3)c2cc1OC [Crystal form IV] = 99.88
• COc1cc2nccc(Oc3ccc(NC(=O)c4nn(C(C)C)cc(-c5ccc(F)cc5)c4=O)nc3)c2cc1OC [Crystal form II] = 99.75
• COc1cc2nccc(Oc3ccc(NC(=O)c4nn(C(C)C)cc(-c5ccc(F)cc5)c4=O)nc3)c2cc1OC [Crystal form I] = 99.69
• COc1cc2nccc(Oc3ccc(NC(=O)c4nn(C(C)C)cc(-c5ccc(F)cc5)c4=O)nc3)c2cc1OC [Crystal form III] = 99.91

* * *

Measured Purity accompanies every entry in the list below.
test.summary: Stability test under influencing factors (high temperature, high humidity, illumination)
Type: physicochemical
details: Left to stand open under illumination (4500±500 Lux) for 10 days
endpoint: Purity (%)

• COc1cc2nccc(Oc3ccc(NC(=O)c4nn(C(C)C)cc(-c5ccc(F)cc5)c4=O)nc3)c2cc1OC [Crystal form III] = 99.91
• COc1cc2nccc(Oc3ccc(NC(=O)c4nn(C(C)C)cc(-c5ccc(F)cc5)c4=O)nc3)c2cc1OC [Crystal form IV] = 99.91
• COc1cc2nccc(Oc3ccc(NC(=O)c4nn(C(C)C)cc(-c5ccc(F)cc5)c4=O)nc3)c2cc1OC [Crystal form I] = 99.69
• COc1cc2nccc(Oc3ccc(NC(=O)c4nn(C(C)C)cc(-c5ccc(F)cc5)c4=O)nc3)c2cc1OC [Crystal form II] = 99.74
